Experiment: Biodistribution (γ-counter)
Format: in vivo, BALB/C nude mice
Settings: male, BALB/C nude, mouse, tumor and blood, iv, total radioactivity; 30 min p.i.; mean ± SD, n = 3; read-out: Tumor/Blood ratio
Peptide text beside a SMILES is read from it. * marks the point of attachment. NOTA = O=C(O)CN1CCN(CC(=O)O)CCN(CC(=O)*)CC1; AEEEA = NCCOCCOCCOCC(=O)O
readout_label: tissue to tissue ratio at 0.5 h
// no unit, no text: just the number

# input molecule: CC[C@H](C)[C@H](NC(=O)[C@H](CCCNC(=N)N)NC(=O)CNC(=O)[C@H](CCC(=O)O)NC(=O)[C@H](CC(N)=O)NC(=O)[C@H](Cc1ccc(O)cc1)NC(=O)[C@H](CCCNC(=N)N)NC(=O)[C@H](Cc1ccc(O)cc1)NC(=O)[C@H](Cc1c[nH]cn1)NC(=O)COCCOCCOCCNC(=O)CN1CCN(CC(=O)O)CCN(CC(=O)O)CC1)C(=O)N[C@@H](CCCNC(=N)N)C(=O)N[C@@H](CC(N)=O)C(=O)O [[^68Ga]Ga-HN11-1, metal not drawn] ({NOTA-AEEEA}-HYRYNEGRIRN-OH) ; wanted: its tissue to tissue ratio at 0.5 h
2.66

====

Test: Biodistribution (γ-counter)
Format: in vivo, BALB/C nude mice
Conditions: male, BALB/C nude, mouse, tumor, iv, total radioactivity, 60 min HN11-1 Block; mean ± SD, n = 3; read-out: Tumor uptake
Peptide text beside a SMILES is read from it. * marks the point of attachment. NOTA = O=C(O)CN1CCN(CC(=O)O)CCN(CC(=O)*)CC1; AEEEA = NCCOCCOCCOCC(=O)O
readout_label: tissue uptake at 1 h (%ID/g)
Provide the reading as a plain figure in %ID/g.

Please report the recorded tissue uptake at 1 h for CC[C@H](C)[C@H](NC(=O)[C@H](CCCNC(=N)N)NC(=O)CNC(=O)[C@H](CCC(=O)O)NC(=O)[C@H](CC(N)=O)NC(=O)[C@H](Cc1ccc(O)cc1)NC(=O)[C@H](CCCNC(=N)N)NC(=O)[C@H](Cc1ccc(O)cc1)NC(=O)[C@H](Cc1c[nH]cn1)NC(=O)COCCOCCOCCNC(=O)CN1CCN(CC(=O)O)CCN(CC(=O)O)CC1)C(=O)N[C@@H](CCCNC(=N)N)C(=O)N[C@@H](CC(N)=O)C(=O)O [[^68Ga]Ga-HN11-1, metal not drawn] ({NOTA-AEEEA}-HYRYNEGRIRN-OH) .
0.63

====

Kindly supply the reported remaining at 4 h values for the records listed here.
Assay: In vitro stability in serum (radio-HPLC)
Type: in vitro ADME
Conditions: room temperature, over 4 h (0.5, 1, 2, 4 h), 3.74 MBq, read-out: in vitro stability in serum (radiochemical purity)
Peptide text beside a SMILES is read from it. * marks the point of attachment. NOTA = O=C(O)CN1CCN(CC(=O)O)CCN(CC(=O)*)CC1; AEEEA = NCCOCCOCCOCC(=O)O

Give its remaining at 4 h value. Item: CC[C@H](C)[C@H](NC(=O)[C@H](CCCNC(=N)N)NC(=O)[C@H](C)NC(=O)[C@H](CCCCN)NC(=O)[C@@H](NC(=O)[C@H](CCCNC(=N)N)NC(=O)[C@H](CCCNC(=N)N)NC(=O)[C@@H](NC(=O)[C@H](Cc1c[nH]cn1)NC(=O)COCCOCCOCCNC(=O)CN1CCN(CC(=O)O)CCN(CC(=O)O)CC1)C(C)C)[C@@H](C)O)C(=O)N[C@@H](CCCNC(=N)N)C(=O)N[C@@H](CC(N)=O)C(=O)O [[^68Ga]Ga-HN11-2, metal not drawn] ({NOTA-AEEEA}-HVRRTKARIRN-OH)
> 95%

Quick one: CC[C@H](C)[C@H](NC(=O)[C@H](CCCNC(=N)N)NC(=O)CNC(=O)[C@H](CCC(=O)O)NC(=O)[C@H](CC(N)=O)NC(=O)[C@H](Cc1ccc(O)cc1)NC(=O)[C@H](CCCNC(=N)N)NC(=O)[C@H](Cc1ccc(O)cc1)NC(=O)[C@H](Cc1c[nH]cn1)NC(=O)COCCOCCOCCNC(=O)CN1CCN(CC(=O)O)CCN(CC(=O)O)CC1)C(=O)N[C@@H](CCCNC(=N)N)C(=O)N[C@@H](CC(N)=O)C(=O)O [[^68Ga]Ga-HN11-1, metal not drawn] ({NOTA-AEEEA}-HYRYNEGRIRN-OH)
> 95%
